Just for reference, patent US20260374766A1 is where these values come from.

- System: H1299 p53 R273H
- procedure.text: Cell Proliferation Assay (CellTiter-Glo, CTG), H1299 p53 R273H (NClH1299-inducible p53 R273H)
- Type: cell-based
- applied.conditions: Homo sapiens, NCI-H1299, 120 h, CellTiter-Glo, H1299 p53 R273H, 5 days
endpoint.label: IC50

CN1CC[C@@H](Nc2cccn3c(CC(F)(F)F)c(C#CCNc4ccc(S(C)(=O)=O)cc4)nc23)[C@@H](F)C1 | ≥ 10 µM
CNC(=O)c1ccc(OC)c(NCC#Cc2nc3c(N[C@@H]4CCN(C)C[C@@H]4F)cccn3c2SC(F)F)c1 | < 5 µM
CNC(=O)c1cc(OC)c(NCC#Cc2nc3c(N[C@@H]4CCN(C)C[C@@H]4F)cccn3c2SC(F)(F)F)cc1Cl | 8 to 10 µM
COc1ccc(-c2ncc[nH]2)cc1NCC#Cc1nc2c(N[C@@H]3CCN(C)C[C@@H]3F)cccn2c1SC(F)(F)F | < 5 µM
CNC(=O)c1ccc(NCC#Cc2nc3c(N[C@H]4CCN(C)CC4(F)F)cccn3c2CC(F)(F)F)c(OC)c1 (single isomer, unassigned) | ≥ 10 µM
CNC(=O)c1ccc(NCC#Cc2nc3c(N[C@@H]4CCN(C)C[C@@H]4F)cccn3c2CC(F)(F)F)c(Cl)c1 | ≥ 10 µM
CNC(=O)c1ccc(NCC#Cc2nc3c(NC4CCN(C)CC4)cc(N)cn3c2CC(F)(F)F)c(OC)c1 | ≥ 10 µM
CNC(=O)c1ccc(NCC#Cc2nc3c(N[C@H]4CCc5ncnn5C4)cccn3c2SC(F)(F)F)c(OC)c1 (stereo in doubt) | ≥ 10 µM
COc1ccc(S(C)(=O)=O)cc1NCC#Cc1nc2c(N[C@@H]3CCN(C)C[C@@H]3F)cccn2c1SC(F)(F)F | ≥ 10 µM
CNC(=O)c1ccc(NCC#Cc2nc3c(N[C@@H]4CCN(C)C[C@@H]4F)cccn3c2SC(F)(F)F)c(OC(F)F)c1 | 8 to 10 µM
CC#Cc1nc2c(N[C@@H]3CCN(C)C[C@@H]3F)cccn2c1CC(F)(F)F | ≥ 10 µM
CNC(=O)c1ccc(NCC#Cc2nc3c(N[C@@H]4CCN(C)CC4(F)F)cccn3c2CC(F)(F)F)c(OC)c1 (single isomer, unassigned) | ≥ 10 µM
CNC(=O)c1ccc(OC)c(NCC#Cc2cc3c(N[C@@H]4CCN(C)C[C@@H]4F)nccn3c2SC(F)(F)F)n1 | ≥ 10 µM
CNC(=O)c1ccc(NCC#Cc2nc3c(N[C@@H]4CCNC(=O)C4)cccn3c2SC(F)(F)F)c(OC)c1 | ≥ 10 µM
CNC(=O)c1cnc(NCC#Cc2nc3c(N[C@@H]4CCN(C)C[C@@H]4F)cccn3c2SC(F)(F)F)c(OC)c1 | 8 to 10 µM
CNC(=O)c1cnc(OC)c(NCC#Cc2nc3c(N[C@@H]4CCN(C)C[C@@H]4F)cccn3c2SC(F)(F)F)c1 | ≥ 10 µM
CNC(=O)c1ccc(OC)c(NCC#Cc2nc3c(N[C@@H]4CCNC[C@@H]4F)cccn3c2SC(F)F)n1 | 8 to 10 µM
C[C@@H](O)C#Cc1nc2c(N[C@@H]3CCN(C)C[C@@H]3F)cccn2c1CC(F)(F)F | ≥ 10 µM
CNC(=O)c1ccc(NCC#Cc2nn3c(N[C@@H]4CCN(C)C[C@@H]4F)nccc3c2SC(F)(F)F)c(OC)c1 | ≥ 10 µM
CNC(=O)N1CCC(Nc2cccn3c(CC(F)(F)F)c(C#CCNc4ccc(S(C)(=O)=O)cc4OC)nc23)CC1 | ≥ 10 µM
CNC(=O)c1cc(OC)c(NCC#Cc2nc3c(N[C@@H]4CCN(C)C[C@@H]4F)cccn3c2CC(F)(F)F)cc1Cl | ≥ 10 µM
CNC(=O)c1cnc(NCC#Cc2nc3c(N[C@@H]4CCN(C)C[C@@H]4F)cccn3c2SC(F)(F)F)n1C | ≥ 10 µM
CNC(=O)c1ccc(OC)c(NCC#Cc2cc3c(N[C@@H]4CCN(C)C[C@@H]4F)nccn3c2SC(F)(F)F)c1 | 8 to 10 µM
CNC(=O)c1ccc(NCC#Cc2nc3c(N[C@@H]4C[C@H]5CC[C@@H]([C@@H]4F)N5C)cccn3c2SC(F)(F)F)c(OC)c1 | 5 to 8 µM
CNC(=O)c1ccc(NCC#Cc2nn3c(N[C@@H]4CCN(C)C[C@@H]4F)nccc3c2SC(F)F)c(OC)c1 | ≥ 10 µM
COc1cc(S(C)(=O)=O)ccc1NCC#Cc1nc2c(NC3CC4(COC4)C3)cccn2c1CC(F)(F)F | ≥ 10 µM
COc1cc(S(=O)(=O)C2CC2)ccc1NCC#Cc1nc2c(N[C@@H]3CCN(C)C[C@@H]3F)cccn2c1CC(F)(F)F | 5 to 8 µM
